Source: ChEMBL document CHEMBL1667843

- assayed target: Glucocorticoid receptor (Homo sapiens)
- Sequence (P04150 whole entry): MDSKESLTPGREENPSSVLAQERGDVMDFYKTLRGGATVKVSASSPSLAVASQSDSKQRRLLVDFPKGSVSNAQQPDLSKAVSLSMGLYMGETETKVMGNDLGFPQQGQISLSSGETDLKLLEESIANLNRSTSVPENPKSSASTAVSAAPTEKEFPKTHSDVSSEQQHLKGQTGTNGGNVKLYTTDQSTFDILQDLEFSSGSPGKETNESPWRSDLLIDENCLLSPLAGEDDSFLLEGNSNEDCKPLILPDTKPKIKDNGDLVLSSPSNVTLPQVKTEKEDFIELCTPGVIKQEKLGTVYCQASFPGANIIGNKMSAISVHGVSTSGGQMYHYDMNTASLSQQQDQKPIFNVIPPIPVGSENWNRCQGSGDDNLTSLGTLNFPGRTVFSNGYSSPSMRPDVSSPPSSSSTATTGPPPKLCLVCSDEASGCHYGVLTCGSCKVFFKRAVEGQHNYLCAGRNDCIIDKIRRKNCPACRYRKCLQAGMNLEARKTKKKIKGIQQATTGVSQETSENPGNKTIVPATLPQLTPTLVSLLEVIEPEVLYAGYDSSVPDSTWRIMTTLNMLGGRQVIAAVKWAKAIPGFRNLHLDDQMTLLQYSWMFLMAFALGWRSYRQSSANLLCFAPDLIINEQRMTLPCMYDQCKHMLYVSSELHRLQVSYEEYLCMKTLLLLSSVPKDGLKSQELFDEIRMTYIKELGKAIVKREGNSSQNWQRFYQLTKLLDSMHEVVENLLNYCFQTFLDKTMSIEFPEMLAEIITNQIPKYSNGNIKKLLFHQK
- method notes: Agonist activity at GR in human A549 cells transfected with luciferase gene linked to MMTV promoter assessed as luciferase transactivation activity
- Format: functional, cell-based
pIC50: −log10 of the molar value.
pIC50 of 7 or higher: Y. Under 7: N.

For orientation, consider the following solved cases.
[[record]]
compound = "Cc1cc(C)c(S(=O)(=O)N[C@@H](C)CNc2cc(C)cc3c2cnn3-c2cccc(NC(C)C)c2)c(C)c1"
cat = "Y"

[[record]]
compound = "Cc1cc(C)c(S(=O)(=O)N[C@@H](C)CNc2cc(C)cc3c2cnn3-c2cccc(F)c2)c(C)c1"
cat = "Y"

[[record]]
compound = "Cc1cc(NC[C@H](C)NS(C)(=O)=O)c2cnn(-c3cccc(C(=O)NC(C)C)c3)c2c1"
cat = "N"

[[record]]
compound = "Cc1cc(C)c(S(=O)(=O)N[C@@H](C)CNc2cc(C)cc3c2cnn3-c2ccc(S(C)(=O)=O)cc2)c(C)c1"
cat = "Y"

[[record]]
compound = "Cc1cc(C)c(S(=O)(=O)N[C@@H](C)CNc2cc(C)cc3c2cnn3-c2cccc(N3CCCC(CO)C3)c2)c(C)c1 (single isomer, unassigned; isomer 1)"
cat = "N"


[ask] hey, is pIC50 for this one >= 7? "Cc1cc(C)c(S(=O)(=O)N[C@@H](C)CNc2cc(C)cc3c2cnn3-c2cccc(N[C@H](C)C(N)=O)c2)c(C)c1"
[reply] Y

[ask] hey, is pIC50 for this one >= 7? Cc1cc(C)c(S(=O)(=O)N[C@@H](C)CNc2cc(C)cc3c2cnn3-c2cccc(N3CCCC(CO)C3)c2)c(C)c1 (stereo in doubt; 14l)
[reply] N

###

Please provide measured IC50 for the entries that follow.
- assayed target: UniProtKB P04150
- Sequence (P04150 whole entry): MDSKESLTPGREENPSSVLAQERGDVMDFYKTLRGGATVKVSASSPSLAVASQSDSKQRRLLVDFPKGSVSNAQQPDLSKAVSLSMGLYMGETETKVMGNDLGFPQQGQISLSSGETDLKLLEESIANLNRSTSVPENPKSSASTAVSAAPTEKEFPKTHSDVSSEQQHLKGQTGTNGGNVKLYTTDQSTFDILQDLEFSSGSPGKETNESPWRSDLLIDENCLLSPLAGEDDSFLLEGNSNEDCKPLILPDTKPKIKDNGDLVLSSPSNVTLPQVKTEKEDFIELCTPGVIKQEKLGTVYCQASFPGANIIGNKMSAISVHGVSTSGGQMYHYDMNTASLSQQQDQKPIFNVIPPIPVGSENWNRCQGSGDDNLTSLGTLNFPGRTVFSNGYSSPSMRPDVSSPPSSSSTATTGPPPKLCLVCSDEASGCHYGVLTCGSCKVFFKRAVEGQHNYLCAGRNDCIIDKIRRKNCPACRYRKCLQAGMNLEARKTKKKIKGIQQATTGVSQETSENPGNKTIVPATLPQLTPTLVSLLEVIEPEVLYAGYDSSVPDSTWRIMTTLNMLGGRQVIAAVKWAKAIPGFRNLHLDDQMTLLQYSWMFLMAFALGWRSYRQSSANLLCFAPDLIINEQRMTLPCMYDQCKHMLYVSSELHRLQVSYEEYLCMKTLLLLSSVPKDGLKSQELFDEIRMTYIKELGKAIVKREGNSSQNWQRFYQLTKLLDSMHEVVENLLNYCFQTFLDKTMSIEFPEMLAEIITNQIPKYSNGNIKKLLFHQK
- method notes: Agonist activity at GR in human A549 cells transfected with luciferase gene linked to MMTV promoter assessed as luciferase transactivation activity
- Type: functional, cell-based
Numbers only, in nM.

Past entries and their recorded results:
[[record]]
chemical_string = "CCN(C[C@](O)(CNc1cccc2c1cnn2-c1ccc(F)cc1)C(F)(F)F)C(=O)c1c(Cl)cccc1Cl"
value_reported = 0.316

[[record]]
chemical_string = "Cc1cc(NC[C@H](C)NS(=O)(=O)C2CC2)c2cnn(-c3cccc(C(=O)N4CCC[C@H]4C(N)=O)c3)c2c1"
value_reported = 3980

[[record]]
chemical_string = "Cc1cc(C)c(S(=O)(=O)N[C@@H](C)CNc2cc(C)cc3c2cnn3-c2ccc(NCC(N)=O)cc2)c(C)c1"
value_reported = 63.1


Now look at this one.
[ask] Give reported IC50 value for "Cc1cc(NC[C@H](C)NS(=O)(=O)C2CC2)c2cnn(-c3cccc(C(=O)N[C@@H](C)C(N)=O)c3)c2c1"
[reply] 200

###

- assayed target: UniProtKB P04150
- Sequence (P04150 whole entry): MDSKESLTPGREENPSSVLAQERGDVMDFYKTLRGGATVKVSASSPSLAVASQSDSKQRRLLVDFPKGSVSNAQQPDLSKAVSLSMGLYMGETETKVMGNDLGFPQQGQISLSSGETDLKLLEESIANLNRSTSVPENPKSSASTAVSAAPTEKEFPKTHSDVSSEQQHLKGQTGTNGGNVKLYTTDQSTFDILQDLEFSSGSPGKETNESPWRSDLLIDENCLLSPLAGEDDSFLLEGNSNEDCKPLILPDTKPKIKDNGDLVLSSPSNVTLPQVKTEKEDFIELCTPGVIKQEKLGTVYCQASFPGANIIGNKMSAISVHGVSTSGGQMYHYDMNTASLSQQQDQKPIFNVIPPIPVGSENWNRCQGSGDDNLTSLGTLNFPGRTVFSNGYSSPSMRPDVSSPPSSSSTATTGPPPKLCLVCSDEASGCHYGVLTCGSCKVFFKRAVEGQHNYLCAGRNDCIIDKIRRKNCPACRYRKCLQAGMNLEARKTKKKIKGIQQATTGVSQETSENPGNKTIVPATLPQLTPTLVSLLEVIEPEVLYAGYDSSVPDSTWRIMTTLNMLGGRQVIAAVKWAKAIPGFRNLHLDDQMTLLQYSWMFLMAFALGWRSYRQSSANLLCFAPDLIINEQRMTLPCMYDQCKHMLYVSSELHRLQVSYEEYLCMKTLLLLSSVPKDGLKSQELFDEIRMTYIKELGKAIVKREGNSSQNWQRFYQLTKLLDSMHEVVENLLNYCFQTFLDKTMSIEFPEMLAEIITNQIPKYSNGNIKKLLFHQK
- method notes: Displacement of fluorescent-labelled Dexamethasone from glucocorticoid receptor
Please provide measured IC50 for the entries that follow.
Answer as a quantity: numeral, then unit.

Past entries and their recorded results:
[[record]]
chemical_string = "Cc1cc(C)c(S(=O)(=O)N[C@@H](C)CNc2cc(C)cc3c2cnn3-c2ccc(N[C@H](C)C(N)=O)cc2)c(C)c1"
value_reported = "0.0251 µM"

[[record]]
chemical_string = "Cc1cc(NC[C@H](C)NS(=O)(=O)C2CC2)c2cnn(-c3cccc(C(=O)N[C@H](C)C(N)=O)c3)c2c1"
value_reported = "0.0316 µM"


Now look at this one.
[ask] Give reported IC50 value for "Cc1cc(C)c(S(=O)(=O)N[C@@H](C)CNc2cc(C)cc3c2cnn3-c2ccc(F)cc2)c(C)c1"
[reply] 0.0158 µM
